Experiment: xn = mol fraction of the nth substance listed, in the solute-free solvent
Conditions: 308.15 K; x2 = 0.7297
Parameter threshold = 0.5. Response is label 1 when solubility (g/100 g solution) meets or exceeds it, else label 0.

Below, 2 molecules whose answers are already recorded.
>  <Molecule>
CC(C)C(=O)Nc1ccc([N+](=O)[O-])c(C(F)(F)F)c1 + CC(C)O + O

>  <Discrete label>
label 1

$$$$
>  <Molecule>
O=c1cc(CBr)c2ccccc2[nH]1 + CC(C)O + O

>  <Discrete label>
label 0

$$$$

Check if solubility (g/100 g solution) >= 0.5 (inclusive). Item: O=C1C=CC(=O)N1c1ccccc1Br + CC(C)O + O
label 1

Record: O=c1cc(CBr)c2ccccc2[nH]1 + CCCO + O
label 0

* * *

Experiment: xn = mol fraction of the nth substance listed, in the solute-free solvent
Conditions: 293.15 K; x2 = 0.8
Quick reference: solubility (g/100 g solution) of the listed items.

Please give the measured solubility (g/100 g solution) for this molecule: Cl.NC1CCSC1=O (centres undefined) + CO + CC#N
6.92

Would you kindly repeat that for CC(C)C(=O)Nc1ccc([N+](=O)[O-])c(C(F)(F)F)c1 + CCOC(C)=O + CC(C)O ?
44.7

Another: CC(C)C(=O)Nc1ccc([N+](=O)[O-])c(C(F)(F)F)c1 + CC(C)=O + CC(C)O
59.7

Cool, now CC(C)C(=O)Nc1ccc([N+](=O)[O-])c(C(F)(F)F)c1 + C1CCOC1 + CC(C)O
60.7

* * *

Assay: xn = mol fraction of the nth substance listed, in the solute-free solvent
Settings: 318.15 K; x2 = 0.2812
Entry flag: 1 if solubility (g/100 g solution) reaches 0.6; 0 if it does not.

>  <Compound>
O=c1cc(CBr)c2ccccc2[nH]1 + CCO + O

>  <Discrete label>
0

$$$$

Quick check, solubility (g/100 g solution) >= 0.6? O=C1C=CC(=O)N1c1ccccc1Br + CCO + O
1

Could you do the same for Nc1cc(-c2ccncc2)c[nH]c1=O + CCO + O , please?
0

Likewise for CC(C)C(=O)Nc1ccc([N+](=O)[O-])c(C(F)(F)F)c1 + CCO + O ?
1

* * *

Experiment: xn = mol fraction of the nth substance listed, in the solute-free solvent
Conditions: 288.15 K; x2 = 0.4772
Label scheme for solubility (g/100 g solution): lower than 0.4 is False, 0.4 and above is True.

Some solved entries appear below for comparison.
>  <Compound>
Nc1cc(-c2ccncc2)c[nH]c1=O + CCO + O

>  <Discrete label>
False

$$$$
>  <Compound>
CC(C)C(=O)Nc1ccc([N+](=O)[O-])c(C(F)(F)F)c1 + CCO + O

>  <Discrete label>
True

$$$$
>  <Compound>
O=c1cc(CBr)c2ccccc2[nH]1 + CCO + O

>  <Discrete label>
False

$$$$

Please check the record O=C1C=CC(=O)N1c1ccccc1Br + CCO + O and state if its solubility (g/100 g solution) is at or above 0.4.
True

* * *

Assay: xn = mol fraction of the nth substance listed, in the solute-free solvent
Conditions: 298.15 K; x2 = 0.1139
Could you label it Criterion met if measured solubility (g/100 g solution) is 0.09 or higher, and Criterion not met otherwise?

>  <Molecule>
Nc1ncc(Br)nc1Br + CC(C)O + O

>  <Discrete label>
Criterion met

$$$$

Reported solubility (g/100 g solution) at or above 0.09? O=c1cc(CBr)c2ccccc2[nH]1 + CC(C)O + O
Criterion not met

Moving on to the next molecule: CC(C)C(=O)Nc1ccc([N+](=O)[O-])c(C(F)(F)F)c1 + CC(C)O + O
Criterion met

O=C1C=CC(=O)N1c1ccccc1Br + CC(C)O + O ?
Criterion met
